assayInfo: in vitro
settings: human
measuredQuantity: IC20 (µM)
Number only, in µM; omit the unit.

Quick note, IC20 for CCOc1cc(C(C)(C)C)ccc1C1COC(c2c(F)cccc2F)=N1 (stereo not shown) [ETX, Etoxazole, reference compound] landed at 28.8

----------
assayInfo: in vitro
settings: rat, FRTL-5 cells
measuredQuantity: IC20 at 2 h (µM)
Number only, in µM; omit the unit.

Quick note, IC20 at 2 h for `CC(C)(c1ccc(O)cc1)c1ccc(O)cc1` landed at 364

----------
systemUnderTest: UniProt:Q92911
Sequence (Q92911 1-643): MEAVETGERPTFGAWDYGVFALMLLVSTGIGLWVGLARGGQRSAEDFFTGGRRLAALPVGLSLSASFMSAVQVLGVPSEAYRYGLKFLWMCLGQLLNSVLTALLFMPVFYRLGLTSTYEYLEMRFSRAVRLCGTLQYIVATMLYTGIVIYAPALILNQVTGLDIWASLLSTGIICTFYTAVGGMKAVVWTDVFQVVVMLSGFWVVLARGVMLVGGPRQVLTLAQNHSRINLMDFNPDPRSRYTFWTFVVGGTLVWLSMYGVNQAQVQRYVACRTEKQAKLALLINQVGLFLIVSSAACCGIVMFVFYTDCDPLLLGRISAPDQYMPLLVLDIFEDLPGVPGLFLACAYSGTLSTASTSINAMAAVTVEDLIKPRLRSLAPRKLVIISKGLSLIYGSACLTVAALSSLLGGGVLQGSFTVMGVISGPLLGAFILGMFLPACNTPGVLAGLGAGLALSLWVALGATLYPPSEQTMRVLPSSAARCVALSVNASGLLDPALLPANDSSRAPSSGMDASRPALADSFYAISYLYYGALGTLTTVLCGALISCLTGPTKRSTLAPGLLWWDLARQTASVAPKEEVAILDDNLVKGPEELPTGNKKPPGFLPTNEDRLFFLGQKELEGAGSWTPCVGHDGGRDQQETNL
assayInfo: NIS-inhibition assay (iodide uptake, Sandell–Kolthoff reaction) on HEK293T NIS 02
Format: cell-based
Design: host or cells: HEK293T (lentiviral transduction, puromycin selection, GFP sorting; lines NIS 02 and NIS C)
settings: mean ± SD, ≥ 3 independent experiments; 2 h exposure; SK reaction; read-out: NIS IC50 HEK293T NIS 02
measuredQuantity: IC50 (µM)
Number only, in µM; omit the unit.

Quick note, IC50 for O=P(Oc1ccccc1)(Oc1ccccc1)Oc1ccccc1 [TPP, Triphenyl phosphate] landed at 42.8

Quick note, IC50 for `Oc1cccc(O)c1` landed at 4060

Quick note, IC50 for O=S(=O)(O)C(F)(F)C(F)(F)C(F)(F)C(F)(F)C(F)(F)C(F)(F)C(F)(F)C(F)(F)F [PFOS, Perfluorooctane sulfonate] landed at 30.9

Quick note, IC50 for `CC(C)(c1ccc(O)cc1)c1ccc(O)cc1` landed at 111

Quick note, IC50 for COc1ccc(C(c2ccc(OC)cc2)C(Cl)(Cl)Cl)cc1 [MET, Methoxychlor, reference compound] landed at 11

Quick note, IC50 for `CC(C)(c1cc(Br)c(O)c(Br)c1)c1cc(Br)c(O)c(Br)c1` landed at 30.1

Quick note, IC50 for [O-][Cl+3]([O-])([O-])O [PCL, Perchlorate, reference compound] landed at 1.65
